Origin of the recorded values: the RNAGym collection of RNA variant scans (doi:10.1021/acssynbio.7b00057)

B1: Pistol ribozyme (parent)
chain: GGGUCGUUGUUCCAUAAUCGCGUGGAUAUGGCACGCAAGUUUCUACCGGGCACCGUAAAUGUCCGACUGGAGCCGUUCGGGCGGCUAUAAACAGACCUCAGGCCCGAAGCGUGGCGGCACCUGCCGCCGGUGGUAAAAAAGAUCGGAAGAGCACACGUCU

Variants of: B1
assayNotes: aptazyme ON/OFF ratio, guanine; higher = stronger switching; co-transcriptional cleavage with and without guanine
recordedEndpoint: aptazyme ON/OFF ratio
Number only, no unit.

Field: example entries. Status: answers known.
U7G U8G G9A U10A U11G C13G	1.16
U7G U8A G9U U10C U11A C12G	1.13
U7G G9A U10A U11A C12G C13U	1.12
U8A U10A U11C C12U C13G	1.09
U7G U8A G9A U10C U11G C12G C13A	1.2

Reported aptazyme ON/OFF ratio for U7A U11G : what is it?
1.17

Reported aptazyme ON/OFF ratio for U7C U11G C12G : what is it?
1.31

Reported aptazyme ON/OFF ratio for U7C U8A U10G U11A C13A : what is it?
1.11

Reported aptazyme ON/OFF ratio for G9C U10G U11C C13G : what is it?
1.03

Reported aptazyme ON/OFF ratio for U7A U8G G9U U11C C12G C13G : what is it?
1.32

Reported aptazyme ON/OFF ratio for U7G U8A G9U U10C U11A : what is it?
1.41

Reported aptazyme ON/OFF ratio for U7G G9U U10G U11A C12G C13A : what is it?
1.19

Reported aptazyme ON/OFF ratio for U8G G9A U10A C12A C13G : what is it?
1.18

Reported aptazyme ON/OFF ratio for U7G U8G U10G U11C C12U C13G : what is it?
1.15

Reported aptazyme ON/OFF ratio for U7G U8A U10C U11A C12A C13G : what is it?
1.23

Reported aptazyme ON/OFF ratio for U7A G9U U10G C12A : what is it?
1.15

Reported aptazyme ON/OFF ratio for U8C G9U U11A C12G C13U : what is it?
1.22

Reported aptazyme ON/OFF ratio for U8C U11A C12U C13G : what is it?
1.18
